- subjectOfTest: KRas^G12V (Homo sapiens, UniProt P01116, G12V)
- Construct: Biotinylated KRas (corresponding to amino acids 1-169, produced at Accelegan Inc.); biotin (biotinylated); purchased Accelegan Inc
- Sequence (P01116 1-169 isoform P01116-2 G12V): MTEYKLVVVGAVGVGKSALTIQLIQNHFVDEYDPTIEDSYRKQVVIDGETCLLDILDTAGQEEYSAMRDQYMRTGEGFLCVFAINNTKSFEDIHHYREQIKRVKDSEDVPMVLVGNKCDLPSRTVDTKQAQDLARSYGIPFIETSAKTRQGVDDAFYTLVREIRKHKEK
- testSummary: KRas binding assay (TR-FRET tracer displacement), KRas G12V
valueKind: IC50 (nM)

Field: example entries. Status: answers known.
CCc1c(F)ccc2cc(O)cc(-c3ncc4c(N5CC6CCC(C5)C6(F)F)nc(OC[C@@]56CCCN5C[C@H](F)C6)nc4c3F)c12 [Example 869]; 116
Cc1cc2[nH]nnc2c(-c2ncc3c(N4CC5C(=O)NC(=O)C5C4)nc(OCC45CCCN4CCC5)nc3c2F)c1C (stereo not drawn) [Example 833]; 3540
O=C1NCC2(CCCN(c3nc(OCC45CCCN4CCC5)nc4c(F)c(-c5c6ccccc6cc6[nH]ncc56)ncc34)C2)N1 (stereo not drawn) [Example 756]; 10
CCc1c(F)ccc2cc(O)cc(-c3ncc4c(N5CCC[C@@](C)(O)C5)nc(OCC56CNCCC5C6)nc4c3F)c12 (stereo partly drawn) [Example 697]; 6
CCc1c(F)ccc2cc(O)cc(-c3ncc4c(N5CCC[C@@](C)(O)C5)nc(OCC56CC5CCN(C)C6)nc4c3F)c12 (stereo partly drawn) [Example 701]; 5
CCc1c(F)ccc2cc(O)cc(-c3ncc4c(NC5CCCc6c(C(=O)N(C)C)nn(C)c65)nc(OC[C@@]56CCCN5C[C@H](F)C6)nc4c3F)c12 (stereo partly drawn) [Example 672]; 5

I: CCc1c(F)ccc2cc(O)cc(-c3ncc4c(N5CCC(N6CCCCS6(=O)=O)C5)nc(OC[C@@]56CCCN5C[C@H](F)C6)nc4c3F)c12 (stereo partly drawn) [Example 655]
II: CCc1c(F)ccc2cc(O)cc(-c3ncc4c(NCc5cn(C(=O)N(C)C)nc5NC(=O)C5CCC5O)nc(OC[C@@]56CCCN5C[C@H](F)C6)nc4c3F)c12 (stereo partly drawn) [Example 819]
III: CCc1c(F)ccc2cc(O)cc(-c3ncc4c(NCc5cc(C(=O)N(C)C)n(CC#N)n5)nc(OC[C@@]56CCCN5C[C@H](F)C6)nc4c3F)c12 [Example 658]
IV: CCc1c(F)ccc2cc(O)cc(-c3ncc4c(N5CCCC(C6(O)CCC6)C5)nc(OC[C@@]56CCCN5C[C@H](F)C6)nc4c3F)c12 (stereo partly drawn) [Example 593]
V: CCc1c(F)ccc2cc(O)cc(-c3ncc4c(N5CCC6(CC5)OCCC6C#N)nc(OC[C@@]56CCCN5C[C@H](F)C6)nc4c3F)c12 (stereo partly drawn) [Example 612]
Parameters: sort_field (IC50), sort_dir (desc). # respond with the labels, arranged in the requested order
V, I, II, IV, III

---

- subjectOfTest: KRas^Q61H (Homo sapiens, UniProt P01116, Q61H)
- Construct: Biotinylated KRas (corresponding to amino acids 1-169, produced at Accelegan Inc.); biotin (biotinylated); purchased Accelegan Inc
- Sequence (P01116 1-169 isoform P01116-2 Q61H): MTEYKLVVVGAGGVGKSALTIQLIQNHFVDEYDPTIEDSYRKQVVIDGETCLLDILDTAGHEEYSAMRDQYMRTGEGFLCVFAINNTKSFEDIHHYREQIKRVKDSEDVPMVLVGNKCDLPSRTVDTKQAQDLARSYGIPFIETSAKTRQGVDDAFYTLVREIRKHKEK
- testSummary: KRas binding assay (TR-FRET tracer displacement), KRas Q61H
- conditionContext: TR-FRET tracer displacement, KRas Q61H
valueKind: IC50 (nM)

Field: example entries. Status: answers known.
CN(C)C(=O)c1cc2n(n1)CCCN(c1nc(OCC34CCCN3CCC4)nc3c(F)c(-c4c5ccccc5cc5[nH]ncc45)ncc13)C2; 203
Cc1cc2[nH]ccc2c(-c2ncc3c(N4CCC[C@@](C)(O)C4)nc(OCC45CCCN4CCC5)nc3c2F)c1C; 4530

I: Cc1cc2[nH]ncc2c(-c2ncc3c(N4CCCC5(CC(O)C5)C4)nc(OCC45CCCN4CCC5)nc3c2F)c1C (stereo not drawn)
II: Cc1cccc2c(-c3ncc4c(N5C[C@@H]6C[C@H](C5)[C@H](O)C6)nc(OC[C@@]56CCCN5C[C@H](F)C6)nc4c3F)cc(O)cc12
III: O=C1NC(=O)C2(CCCN(c3nc(OC[C@@]45CCCN4C[C@H](F)C5)nc4c(F)c(-c5c6ccccc6cc6[nH]ncc56)ncc34)C2)N1 (stereo partly drawn)
IV: Oc1cc(-c2ncc3c(N4C[C@@H]5C[C@H](C4)[C@H](O)C5)nc(OC[C@@]45CCCN4C[C@H](F)C5)nc3c2F)c2ccc(F)cc2c1
Parameters: sort_field (IC50), sort_dir (desc). # respond with the labels, arranged in the requested order
I, II, IV, III

I: CN(C)C(=O)c1cc2n(n1)CCCN(c1nc(OC[C@@]34CCCN3C[C@H](F)C4)nc3c(F)c(-c4c5ccccc5cc5[nH]ncc45)ncc13)C2
II: CCc1cccc2cc3[nH]ncc3c(-c3ncc4c(N5CCCC6(CC(=O)N6)C5)nc(OC[C@@]56CCCN5C[C@H](F)C6)nc4c3F)c12 (stereo partly drawn)
Endpoint returns the identifier whose IC50 is numerically larger, either I or II . Mark your selection by writing its label.
I

---

- System: KRas-mediated phosphorylation of ERK in AsPC-1 cells
- testSummary: Inhibition of KRas-mediated phosphorylation of ERK (Cisbio HTRF pERK), AsPC-1 cells
- Assay type: cell-based
- conditionContext: AsPC-1 cells; HTRF pERK
valueKind: IC50 (nM)

Field: example entries. Status: answers known.
CCc1c(F)ccc2cc(O)cc(-c3ncc4c(N5CC6CCC(C5)C6C#N)nc(OC[C@@]56CCCN5C[C@H](F)C6)nc4c3F)c12 (single isomer, unassigned) [Example 561]; 80
CCc1c(F)ccc2cc(O)cc(-c3ncc4c(N5CC6CCC(C5)C6C#N)nc(OC[C@@]56CCCN5C[C@H](F)C6)nc4c3F)c12 (single isomer, unassigned) [Example 560]; 3100

1: CCc1c(F)ccc2cc(O)cc(-c3ncc4c(N5CCCC(C6CCNC6=O)C5)nc(OC[C@@]56CCCN5C[C@H](F)C6)nc4c3F)c12 (single isomer, unassigned) [Example 619]
2: CCc1c(F)ccc2cc(O)cc(-c3ncc4c(N5CCCC(C6CCNC6=O)C5)nc(OC[C@@]56CCCN5C[C@H](F)C6)nc4c3F)c12 (single isomer, unassigned) [Example 617]
Which gives the smaller IC50 number: 1 or 2 ? Mark your selection by writing its label.
2

---

- subjectOfTest: KRas^G12R (Homo sapiens, UniProt P01116, G12R)
- Construct: Biotinylated KRas (corresponding to amino acids 1-169, produced at Accelegan Inc.); biotin (biotinylated); purchased Accelegan Inc
- Sequence (P01116 1-169 isoform P01116-2 G12R): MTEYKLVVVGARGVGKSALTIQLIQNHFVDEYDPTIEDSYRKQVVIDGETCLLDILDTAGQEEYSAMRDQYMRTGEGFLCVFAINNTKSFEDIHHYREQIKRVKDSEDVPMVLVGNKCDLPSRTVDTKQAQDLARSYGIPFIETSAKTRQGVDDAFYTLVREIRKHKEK
- testSummary: KRas binding assay (TR-FRET tracer displacement), KRas G12R
valueKind: IC50 (nM)

A: CCc1c(F)ccc2cc(O)cc(-c3ncc4c(N5CCC[C@@](C)(O)C5)nc(OC[C@@]56CCCN5[C@H](COC(=O)NC)CC6)nc4c3F)c12 [Example 706]
B: CN(C)C(=O)OC[C@@H]1CC[C@@]2(COc3nc(N4CCC[C@@](C)(O)C4)c4cnc(-c5cc(O)cc6ccc(F)c(F)c56)c(F)c4n3)CCCN12 [Example 548]
Which gives the smaller IC50 number: A or B ? Mark your selection by writing its label.
A
(A: 2 nM, B: 5 nM)

---

- subjectOfTest: KRas^G12V (Homo sapiens, UniProt P01116, G12V)
- Construct: Biotinylated KRas (corresponding to amino acids 1-169, produced at Accelegan Inc.); biotin (biotinylated); purchased Accelegan Inc
- testSummary: KRas binding assay (TR-FRET tracer displacement), KRas G12V
valueKind: IC50 (nM)

Field: example entries. Status: answers known.
CCc1c(F)ccc2cc(O)cc(-c3ncc4c(NCc5cnn(C(=O)N(C)C)c5N)nc(OC[C@@]56CCCN5C[C@H](F)C6)nc4c3F)c12 [Example 640]; 16
CCc1c(F)ccc2cc(O)cc(-c3ncc4c(N5CC6CCCC(C6)C5)nc(OC[C@@]56CCCN5C[C@H](F)C6)nc4c3F)c12 [Example 551]; 32
CCc1c(F)ccc2cc(O)cc(-c3ncc4c(N5CCCCCC(P(C)(C)=O)C5)nc(OC[C@@]56CCCN5C[C@H](F)C6)nc4c3F)c12 (stereo partly drawn) [Example 864]; 946

P: CCc1c(F)ccc2cc(O)cc(-c3ncc4c(N5CCCC6(CC(=O)N6)C5)nc(OC[C@]56CCCN5[C@H](COC(=O)N(C)C)CC6)nc4c3F)c12 (stereo partly drawn) [Example 715]
Q: CCc1c(F)ccc2cc(O)cc(-c3ncc4c(N5CC6CCC(CC(=O)NC)(C6)C5)nc(OC[C@@]56CCCN5C[C@H](F)C6)nc4c3F)c12 (stereo partly drawn) [Example 914]
Endpoint returns the identifier whose IC50 is numerically larger, either P or Q . Mark your selection by writing its label.
Q

---

- subjectOfTest: KRas^G12C (Homo sapiens, UniProt P01116, G12C)
- Construct: Biotinylated KRas (corresponding to amino acids 1-169, produced at Accelegan Inc.); biotin (biotinylated); purchased Accelegan Inc
- Sequence (P01116 1-169 isoform P01116-2 G12C): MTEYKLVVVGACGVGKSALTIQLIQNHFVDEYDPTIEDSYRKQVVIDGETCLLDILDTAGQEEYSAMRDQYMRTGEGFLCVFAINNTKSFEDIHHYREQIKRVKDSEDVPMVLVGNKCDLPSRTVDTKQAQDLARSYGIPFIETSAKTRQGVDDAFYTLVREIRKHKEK
- testSummary: KRas binding assay (TR-FRET tracer displacement), KRas G12C
- conditionContext: TR-FRET tracer displacement, KRas G12C
valueKind: IC50 (nM)

Field: example entries. Status: answers known.
Oc1cc(-c2ncc3c(N4C[C@@H]5C[C@H](C4)[C@H](O)C5)nc(OC[C@@]45CCCN4C[C@H](F)C5)nc3c2F)c2ccc(Cl)cc2c1; 33
Cc1cc2[nH]ncc2c(-c2ncc3c(N4CCC[C@]5(C4)NC(=O)NC5=O)nc(OCC4(CN(C)C)CC4)nc3c2F)c1C; 43

a: CCc1c(F)ccc2cc(O)cc(-c3ncc4c(N5C[C@@H]6C[C@H](C5)[C@H](O)C6)nc(OC[C@@H]5CC[C@H]6COCCN65)nc4c3F)c12
b: Cc1c(Cl)cc2[nH]ncc2c1-c1ncc2c(N3CCC[C@]4(C3)NC(=O)NC4=O)nc(OCC34CCCN3CCC4)nc2c1F
Which gives the smaller IC50 number: a or b ? Mark your selection by writing its label.
a
